Biological target: Glutamine--tRNA ligase (Escherichia coli (strain K12))
Sequence (P00962 whole entry): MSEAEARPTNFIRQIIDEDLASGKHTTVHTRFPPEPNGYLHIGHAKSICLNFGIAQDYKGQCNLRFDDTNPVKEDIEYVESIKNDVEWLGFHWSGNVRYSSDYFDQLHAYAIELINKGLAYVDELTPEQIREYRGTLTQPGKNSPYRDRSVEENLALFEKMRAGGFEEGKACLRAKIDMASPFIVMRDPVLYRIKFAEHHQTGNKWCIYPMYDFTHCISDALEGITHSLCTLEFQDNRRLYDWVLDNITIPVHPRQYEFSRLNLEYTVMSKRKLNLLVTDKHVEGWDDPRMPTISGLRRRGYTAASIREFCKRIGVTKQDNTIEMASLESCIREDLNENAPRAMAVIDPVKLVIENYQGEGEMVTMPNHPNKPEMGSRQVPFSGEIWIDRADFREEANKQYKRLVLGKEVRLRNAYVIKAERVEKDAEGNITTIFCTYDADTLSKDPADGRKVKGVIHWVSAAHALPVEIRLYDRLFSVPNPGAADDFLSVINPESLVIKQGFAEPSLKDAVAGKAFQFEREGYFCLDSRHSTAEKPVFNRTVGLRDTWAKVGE
Test: Binding affinity to Escherichia coli K12 glutaminyl-tRNA synthetase assessed as inhibition constant
Readout label: pKi
Bear in mind: pKi is minus log10 of a mol/L concentration; give just that figure.

Recall and state the measured pKi for NC(=O)CCC(N)COP(=O)(O)OC[C@H]1O[C@@H](n2cnc3c(N)ncnc32)[C@H](O)[C@@H]1O (stereo partly specified) .
6.55

###

Target: Phospho-N-acetylmuramoyl-pentapeptide-transferase (Staphylococcus aureus, UniProt P0C1R8)
Sequence (P0C1R8 whole entry): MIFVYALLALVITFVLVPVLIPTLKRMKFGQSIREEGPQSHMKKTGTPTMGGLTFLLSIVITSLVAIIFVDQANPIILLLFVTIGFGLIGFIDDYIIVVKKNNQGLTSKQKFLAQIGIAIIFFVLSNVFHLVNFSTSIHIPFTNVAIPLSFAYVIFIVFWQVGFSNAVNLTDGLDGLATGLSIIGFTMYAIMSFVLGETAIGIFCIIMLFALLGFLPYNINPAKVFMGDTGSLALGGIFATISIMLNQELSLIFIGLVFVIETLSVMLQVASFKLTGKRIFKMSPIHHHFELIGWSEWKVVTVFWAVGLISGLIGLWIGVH
Readout label: IC50 (nM)
Numbers only here, please. The scale is nM.

Recall and state the measured IC50 for COC(=O)C1=C[C@@H](O)[C@@H](O)[C@H](O[C@@H](C(N)=O)[C@H]2O[C@@H](n3ccc(=O)[nH]c3=O)[C@H](O)[C@@H]2OC)O1 .
27

###

Assay: Inhibition of Escherichia coli RNA polymerase
Readout label: pIC50
Bear in mind: pIC50 is minus log10 of a mol/L concentration; give just that figure.

Recall and state the measured pIC50 for CO[C@H]1[C@@H](O)[C@H](n2ccc(=O)[nH]c2=O)O[C@@H]1[C@@H](O[C@@H]1OC(C(=O)N[C@H]2CCCCNC2=O)=C[C@@H](O)[C@H]1O)C(N)=O .
7.00

###

Tested on: Mycobacterium tuberculosis
Test: Antimycobacterial activity against Mycobacterium tuberculosis H37Rv assessed as reduction in microbial growth after 7 days by alamar blue assay
Type: functional, organism-based
Conditions: 168 h
Readout label: pIC50
Bear in mind: pIC50 is minus log10 of a mol/L concentration; give just that figure.

Recall and state the measured pIC50 for CCOC(=O)[C@H](Cc1ccccc1)NP(=O)(N[C@@H](Cc1ccccc1)C(=O)OCC)OCOCCN .
5.30

###

Test system: Coccidioides immitis
Assay: Antifungal activity against Coccidioides immitis assessed as reduction in fungal growth
Type: functional
Entries and their MIC values follow.
Numbers only here, please. The scale is µg/mL.

Look over these answered cases.
Compound: CSCC[C@H](N)C(=O)N[C@H](C(=O)O)[C@@H]1C[C@@H](O)[C@@H](O)[C@H](n2ccc(=O)[nH]c2=O)O1
Result: 0.25
--
Compound: N[C@@H](Cc1ccc(O)cc1)C(=O)N[C@H](C(=O)O)[C@@H]1C[C@@H](O)[C@@H](O)[C@H](n2ccc(=O)[nH]c2=O)O1
Result: 0.25
--
Compound: C[C@@H]([C@H](N)C(=O)N[C@H](C(=O)O)[C@H]1O[C@@H](n2ccc(=O)[nH]c2=O)[C@H](O)[C@@H]1O)[C@H](O)c1ccc(O)cn1 [NIKKOMYCIN]
Result: 0.25

Recall and state the measured MIC for CC(C)C[C@H](N)C(=O)N[C@H](C(=O)O)[C@@H]1C[C@@H](O)[C@@H](O)[C@H](n2ccc(=O)[nH]c2=O)O1 .
0.25

Recall and state the measured MIC for N[C@@H](Cc1ccccc1)C(=O)N[C@H](C(=O)O)[C@@H]1C[C@@H](O)[C@@H](O)[C@H](n2ccc(=O)[nH]c2=O)O1 .
0.25

Recall and state the measured MIC for C[C@@H]([C@H](N)C(=O)N[C@H](C(=O)O)[C@@H]1C[C@@H](O)[C@@H](O)[C@H](n2ccc(=O)[nH]c2=O)O1)[C@H](O)c1ccc(O)cc1 .
0.03

Recorded values, source ChEMBL document CHEMBL5257035.
